The reported measurements were obtained from patent US10947284B2.

biological target: hNGAL (human lipocalin 2, parent wild type SEQ ID NO: 1) mutein SEQ ID NO: 48 (Homo sapiens, UniProt P80188, A60L/C107S/D67N/D97K/I61A/K154W/K93H/L123Q/L56E/L90R/N116L/Q48H/Q69M/R101V/S125P/S147V/S88E/T165P/W99D/Y120D/Y126E/Y72M); assay: Solution binding ELISA
Sequence (P80188 other isoform, or with tags, fused parts or gaps with the stated changes): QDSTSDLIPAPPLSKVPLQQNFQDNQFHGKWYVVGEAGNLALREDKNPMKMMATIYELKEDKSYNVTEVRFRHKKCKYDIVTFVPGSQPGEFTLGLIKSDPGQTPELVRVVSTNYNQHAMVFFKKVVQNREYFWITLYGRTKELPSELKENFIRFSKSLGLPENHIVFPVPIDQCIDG
PROPERTY NAME: IC50 (pM)
Reply with just the number (in pM).

[[record]]
compound = "NC(=O)CCC(=O)Nc1cc2cc(O)c(O)cc2[n+]2c1NCC[C@H]2C(=O)N[C@H](CO)C1=NCC[C@@H](C(=O)N[C@@H](CCCN(O)C=O)C(=O)N[C@@H](CCC(N)=O)C(=O)N[C@H](CCC(N)=O)C(=O)N[C@H](CCCN(O)C=O)C(=O)NCC(=O)O)N1 [Pvd III sa (−Fe), Pvd type III succinamide]"
property_name = "IC50"
meas_value = 240

[[record]]
compound = "NC(=O)CC[C@H](NC(=O)[C@H](CCCN([O-])C=O)NC(=O)[C@@H]1CCN=C([C@@H](CO)NC(=O)[C@@H]2CCNc3c(NC(=O)C(=O)CCC(=O)O)cc4cc([O-])c([O-])cc4[n+]32)N1)C(=O)N[C@H](CCC(N)=O)C(=O)N[C@H](CCCN([O-])C=O)C(=O)NCC(=O)O.[Fe+3] [Pvd III aKG (+Fe), Pvd type III α-ketoglutaryl]"
property_name = "IC50"
meas_value = 950

[[record]]
compound = "NC(=O)CCC(=O)Nc1cc2cc([O-])c([O-])cc2[n+]2c1NCC[C@H]2C(=O)N[C@H](CO)C1=NCC[C@@H](C(=O)N[C@@H](CCCN([O-])C=O)C(=O)N[C@@H](CCC(N)=O)C(=O)N[C@H](CCC(N)=O)C(=O)N[C@H](CCCN([O-])C=O)C(=O)NCC(=O)O)N1.[Fe+3] [Pvd III sa (+Fe), Pvd type III succinamide]"
property_name = "IC50"
meas_value = 220


// switching to the query compound
Prompt line: // IC50 lookup, key: NC(=O)CC[C@H](NC(=O)[C@H](CCCN(O)C=O)NC(=O)[C@@H]1CCN=C([C@@H](CO)NC(=O)[C@@H]2CCNc3c(NC(=O)C(=O)CCC(=O)O)cc4cc(O)c(O)cc4[n+]32)N1)C(=O)N[C@H](CCC(N)=O)C(=O)N[C@H](CCCN(O)C=O)C(=O)NCC(=O)O [Pvd III aKG (−Fe), Pvd type III α-ketoglutaryl]
Response line: 640

* * *

target: hNGAL (human lipocalin 2, parent wild type SEQ ID NO: 1) mutein SEQ ID NO: 53 (Homo sapiens, UniProt P80188, A60L/C107S/D97K/I61A/K154W/K93H/L123Q/L56E/L62R/L90R/N116L/N85D/Q69M/R101V/S125P/S147V/S88E/W99D/Y120D/Y126E/Y72M); experiment: Solution binding ELISA; conditions: Example 5
Sequence (P80188 21-198 with the stated changes): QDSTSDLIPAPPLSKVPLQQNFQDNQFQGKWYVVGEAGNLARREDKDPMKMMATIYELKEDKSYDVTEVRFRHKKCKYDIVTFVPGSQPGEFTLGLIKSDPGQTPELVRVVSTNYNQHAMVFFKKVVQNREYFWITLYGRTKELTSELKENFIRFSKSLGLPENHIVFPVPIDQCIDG
PROPERTY NAME: IC50 (nM)
Value expressed in nM; do not type the unit.

Prompt line: Please look up its IC50: NC(=O)CC[C@H](NC(=O)[C@H](CCCN(O)C=O)NC(=O)[C@@H]1CCN=C([C@@H](CO)NC(=O)[C@@H]2CCNc3c(NC(=O)C(=O)CCC(=O)O)cc4cc(O)c(O)cc4[n+]32)N1)C(=O)N[C@H](CCC(N)=O)C(=O)N[C@H](CCCN(O)C=O)C(=O)NCC(=O)O [Pvd III aKG (−Fe), Pvd type III α-ketoglutaryl]
Response line: 0.33

* * *

biological target: Fusion molecule SEQ ID NO: 134 (hNGAL muteins SEQ ID NOs: 36, 16, 53 and 62) (Homo sapiens, UniProt P80188, A60T/C107S/D97H, form not given/K145I/K154W/K93R/L123T/L56V/L90R/N85D/Q69G/R101D/R92I/S147R/S88D/T74A/W99Y/Y126Q/Y152I/Y72N); test: Surface plasmon resonance (Biacore T200); conditions: Biacore, 25° C., Table 13
Sequence (P80188 with tags, fused parts or gaps with the stated changes, form open): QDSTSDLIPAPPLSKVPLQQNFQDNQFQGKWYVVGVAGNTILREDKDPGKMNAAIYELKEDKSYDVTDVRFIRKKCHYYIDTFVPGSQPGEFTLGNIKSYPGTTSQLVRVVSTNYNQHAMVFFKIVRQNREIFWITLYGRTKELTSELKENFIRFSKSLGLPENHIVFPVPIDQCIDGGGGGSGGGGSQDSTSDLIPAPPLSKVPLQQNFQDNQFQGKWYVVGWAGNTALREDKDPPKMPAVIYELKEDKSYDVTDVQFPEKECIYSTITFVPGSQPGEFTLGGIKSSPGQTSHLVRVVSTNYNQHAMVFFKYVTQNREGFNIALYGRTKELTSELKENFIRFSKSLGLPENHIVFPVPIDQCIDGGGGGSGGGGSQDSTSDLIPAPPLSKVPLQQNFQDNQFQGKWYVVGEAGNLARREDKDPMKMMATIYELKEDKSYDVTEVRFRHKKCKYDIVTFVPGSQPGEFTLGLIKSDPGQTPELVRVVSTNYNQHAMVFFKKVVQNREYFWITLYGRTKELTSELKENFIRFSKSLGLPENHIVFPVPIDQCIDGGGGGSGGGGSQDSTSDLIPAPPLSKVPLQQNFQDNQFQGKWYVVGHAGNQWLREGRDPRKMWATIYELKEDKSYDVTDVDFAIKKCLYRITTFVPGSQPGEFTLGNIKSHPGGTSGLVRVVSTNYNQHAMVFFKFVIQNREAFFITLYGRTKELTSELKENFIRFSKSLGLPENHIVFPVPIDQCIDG
PROPERTY NAME: Kd (nM)
Value expressed in nM; do not type the unit.

Prompt line: Reported Kd for NC(=O)CC[C@H](NC(=O)[C@H](CCCN([O-])C=O)NC(=O)[C@@H]1CCN=C([C@@H](CO)NC(=O)[C@@H]2CCNc3c(NC(=O)C(=O)CCC(=O)O)cc4cc([O-])c([O-])cc4[n+]32)N1)C(=O)N[C@H](CCC(N)=O)C(=O)N[C@H](CCCN([O-])C=O)C(=O)NCC(=O)O.[Fe+3] [Pvd III aKG (+Fe), Pvd type III α-ketoglutaryl] : what is it?
Response line: 1.04

* * *

biological target: hNGAL (human lipocalin 2, parent wild type SEQ ID NO: 1) mutein SEQ ID NO: 42 (Homo sapiens, UniProt P80188, A60L/C107S/D97Q/I61A/K154W/K93H/L123Q/L56E/L90R/N116L/Q48H/Q69K/R101A/S147V/S88E/W99D/Y120D/Y126E/Y152F/Y72M); test: Solution binding ELISA
Sequence (P80188 other isoform, or with tags, fused parts or gaps with the stated changes): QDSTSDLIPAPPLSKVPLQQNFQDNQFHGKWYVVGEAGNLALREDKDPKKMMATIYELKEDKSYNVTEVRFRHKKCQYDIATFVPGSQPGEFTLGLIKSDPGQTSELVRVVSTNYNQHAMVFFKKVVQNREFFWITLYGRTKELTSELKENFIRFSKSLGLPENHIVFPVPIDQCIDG
PROPERTY NAME: IC50 (nM)
Write the number in nM without appending the unit.

[[record]]
molecule = "NC(=O)CC[C@H](NC(=O)[C@H](CCCN([O-])C=O)NC(=O)[C@@H]1CCN=C([C@@H](CO)NC(=O)[C@@H]2CCNc3c(NC(=O)C(=O)CCC(=O)O)cc4cc([O-])c([O-])cc4[n+]32)N1)C(=O)N[C@H](CCC(N)=O)C(=O)N[C@H](CCCN([O-])C=O)C(=O)NCC(=O)O.[Fe+3] [Pvd III aKG (+Fe), Pvd type III α-ketoglutaryl]"
meas_value = 78

[[record]]
molecule = "NC(=O)CC[C@H](NC(=O)[C@H](CCCN(O)C=O)NC(=O)[C@@H]1CCN=C([C@@H](CO)NC(=O)[C@@H]2CCNc3c(NC(=O)C(=O)CCC(=O)O)cc4cc(O)c(O)cc4[n+]32)N1)C(=O)N[C@H](CCC(N)=O)C(=O)N[C@H](CCCN(O)C=O)C(=O)NCC(=O)O [Pvd III aKG (−Fe), Pvd type III α-ketoglutaryl]"
meas_value = 69

[[record]]
molecule = "NC(=O)CCC(=O)Nc1cc2cc(O)c(O)cc2[n+]2c1NCC[C@H]2C(=O)N[C@H](CO)C1=NCC[C@@H](C(=O)N[C@@H](CCCN(O)C=O)C(=O)N[C@@H](CCC(N)=O)C(=O)N[C@H](CCC(N)=O)C(=O)N[C@H](CCCN(O)C=O)C(=O)NCC(=O)O)N1 [Pvd III sa (−Fe), Pvd type III succinamide]"
meas_value = 7.2


Prompt line: Need IC50 of NC(=O)CCC(=O)Nc1cc2cc([O-])c([O-])cc2[n+]2c1NCC[C@H]2C(=O)N[C@H](CO)C1=NCC[C@@H](C(=O)N[C@@H](CCCN([O-])C=O)C(=O)N[C@@H](CCC(N)=O)C(=O)N[C@H](CCC(N)=O)C(=O)N[C@H](CCCN([O-])C=O)C(=O)NCC(=O)O)N1.[Fe+3] [Pvd III sa (+Fe), Pvd type III succinamide] , thanks.
Response line: 15

* * *

target: hNGAL (human lipocalin 2, parent wild type SEQ ID NO: 1) mutein SEQ ID NO: 50 (Homo sapiens, UniProt P80188, A60L/C107S/D97K/I61A/K154W/K93H/L123Q/L56E/L62R/L90R/N116L/N85D/Q48H/Q69M/R101V/S125P/S147V/S88E/W99D/Y120D/Y126E/Y72M); assay: Solution binding ELISA; settings: Example 5
Sequence (P80188 other isoform, or with tags, fused parts or gaps with the stated changes): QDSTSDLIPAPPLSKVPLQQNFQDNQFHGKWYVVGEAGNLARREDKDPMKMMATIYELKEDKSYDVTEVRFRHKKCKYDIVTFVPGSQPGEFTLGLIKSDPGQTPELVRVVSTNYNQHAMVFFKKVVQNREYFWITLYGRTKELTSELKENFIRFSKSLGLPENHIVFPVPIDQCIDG
PROPERTY NAME: pIC50
# pIC50 = -log10(concentration in molar units)

Prompt line: pIC50 lookup needed for NC(=O)CCC(=O)Nc1cc2cc([O-])c([O-])cc2[n+]2c1NCC[C@H]2C(=O)N[C@H](CO)C1=NCC[C@@H](C(=O)N[C@@H](CCCN([O-])C=O)C(=O)N[C@@H](CCC(N)=O)C(=O)N[C@H](CCC(N)=O)C(=O)N[C@H](CCCN([O-])C=O)C(=O)NCC(=O)O)N1.[Fe+3] [Pvd III sa (+Fe), Pvd type III succinamide] , thanks.
Response line: 9.46

* * *

molecular target: hNGAL (human lipocalin 2, parent wild type SEQ ID NO: 1) mutein SEQ ID NO: 46 (deletion of G-N-I-K, positions 95-98) (Homo sapiens, UniProt P80188, A60L/C107S/D97Q/DEL115-118/I61A/K154W/K93Y/L123Q/L56E/L90R/Q48H/Q69K/R101V/S147V/S88E/W99D/Y120E/Y126E/Y152F/Y72M); assay: Solution binding ELISA
Sequence (P80188 other isoform, or with tags, fused parts or gaps with the stated changes): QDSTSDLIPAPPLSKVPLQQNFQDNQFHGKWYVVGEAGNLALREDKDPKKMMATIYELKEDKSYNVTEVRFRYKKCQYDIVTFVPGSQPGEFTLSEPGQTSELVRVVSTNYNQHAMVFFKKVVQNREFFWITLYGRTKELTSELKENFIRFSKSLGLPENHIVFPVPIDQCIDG
PROPERTY NAME: IC50 (nM)
The reply should contain only the number, in nM.

Prompt line: Any idea what IC50 was measured for NC(=O)CCC(=O)Nc1cc2cc([O-])c([O-])cc2[n+]2c1NCC[C@H]2C(=O)N[C@H](CO)C1=NCC[C@@H](C(=O)N[C@@H](CCCN([O-])C=O)C(=O)N[C@@H](CCC(N)=O)C(=O)N[C@H](CCC(N)=O)C(=O)N[C@H](CCCN([O-])C=O)C(=O)NCC(=O)O)N1.[Fe+3] [Pvd III sa (+Fe), Pvd type III succinamide] ?
Response line: 0.3
